test: Intrinsic clearance in human liver microsomes at 1 uM preincubated with NADPH for 5 mins followed by compound addition and measured upto 30 mins by LC-MS/MS analysis; type: ADME, Microsome; conditions: read-out: CLH
measure: microsomal CLint at 1 µM (µL/min/mg)

moleculeSmiles	microsomal CLint at 1 µM / µL/min/mg
COc1ccccc1C(=O)Nc1cnc(NCc2c(F)ccc3c2CCO3)n2cnnc12	20
Cc1nc(CO)ccc1-c1cnc(NCc2c(F)ccc3c2CCO3)c2cn[nH]c(=O)c12	11

A: CN(C)Cc1ccc2c(c1)CN(c1cnc(NCc3c(F)ccc4c3CCO4)c3cn[nH]c(=O)c13)C2=O
B: Cc1nccn1-c1cnc(NCc2c(F)ccc3c2CCO3)c2cn[nH]c(=O)c12
Input line: Identify the item whose microsomal CLint at 1 µM is the smaller number: A or B Indicate your choice by writing its label.
Output line: B

* * *

experiment: Clearance in rat at 1 mg/kg, po or 0.5 mg/kg, iv; type: ADME, organism-based; conditions: in vivo
measure: clearance (mL/min/kg)

a: CNC(=O)c1ccc(-c2cnc(NCc3c(F)ccc4c3CCO4)c3cn[nH]c(=O)c23)c(C)n1
b: O=C1c2ccc(OCCN3CCCC3)cc2CN1c1cnc(NCc2c(F)ccc3c2CCO3)n2cnnc12
c: Cc1nc(C(=O)N(C)C)ccc1-c1cnc(NCc2c(F)ccc3c2CCO3)c2cn[nH]c(=O)c12
Input line: Sort by clearance with smallest numbers at the start of the list. Would you mind listing the labels in the order asked for?
Output line: a, b, c
(a: 24 mL/min/kg, b: 35 mL/min/kg, c: 54 mL/min/kg)

* * *

test: Intrinsic clearance in human liver microsomes at 1 uM preincubated with NADPH for 5 mins followed by compound addition and measured upto 30 mins by LC-MS/MS analysis; type: ADME, Microsome; details: read-out: CLH
measure: microsomal CLint at 1 µM (µL/min/mg)

moleculeSmiles	endpointResult
Cc1nc(CN(C)C)ccc1-c1cnc(NCc2c(F)ccc3c2CCO3)c2cn[nH]c(=O)c12	13
O=C1Cc2ccccc2CN1c1cnc(NCc2c(F)ccc3c2CCO3)n2cnnc12	16
CN(C)C(=O)c1cc(-c2cnc(NCc3c(F)ccc4c3CCO4)c3cn[nH]c(=O)c23)n(C)n1	21
Cc1ncccc1-c1cnc(NCc2c(F)ccc3c2CCO3)n2cnnc12	15
O=C1c2ccc(OCCN3CCCC3)cc2CN1c1cnc(NCc2c(F)ccc3c2CCO3)n2cnnc12	18

a: Cc1nc(C(=O)N(C)C)ccc1-c1cnc(NCc2c(F)ccc3c2CCO3)c2cn[nH]c(=O)c12
b: Cc1ncccc1-c1cnc(NCc2c(F)ccc3c2CCO3)c2cn[nH]c(=O)c12
c: CN(c1ncco1)c1cnc(NCc2c(F)ccc3c2CCO3)n2cnnc12
d: Cc1ncccc1-c1cnc(NCc2c(F)ccc3c2CCO3)c2nn(CC#N)c(=O)n12
Input line: Sort low-to-high on microsomal CLint at 1 µM, please. List labels; respect the requested ordering.
Output line: c, a, b, d
(c: 11 µL/min/mg, a: 19 µL/min/mg, b: 41 µL/min/mg, d: 151 µL/min/mg)

* * *

assay: Intrinsic clearance in human hepatocytes assessed per million cells at 1 uM measured upto 30 mins by HPLC analysis; format: ADME, cell-based, Hepatocyte; conditions: read-out: CLH
measure: hepatocyte CLint at 1 µM (µL/min/1e6 cells)

Please review the following examples before continuing.
moleculeSmiles	hepatocyte CLint at 1 µM [µL/min/1e6 cells]
O=C1c2ccccc2CN1c1cnc(NCc2c(F)ccc3c2CCO3)n2cnnc12	2.7
O=C1CC2(CC2)CN1c1cnc(NCc2c(F)ccc3c2CCO3)n2cnnc12	3.5

I: Cc1ncccc1-c1cnc(NCc2c(F)ccc3c2CCO3)n2cnnc12
II: CN(c1ncco1)c1cnc(NCc2c(F)ccc3c2CCO3)n2cnnc12
Input line: In terms of reported hepatocyte CLint at 1 µM, does I or II have the smaller number? Give the chosen item's label as your response.
Output line: II
(II: 1.4 µL/min/1e6 cells, I: 2.6 µL/min/1e6 cells)

* * *

experiment: Lipophilicity, logD of the compound in Octanol/phosphate buffer at pH 7.4 after 30 mins by shake-flask method; assay type: physicochemical
measure: logD at 0.5 h

Here is how some molecules turned out for logD at 0.5 h.
moleculeSmiles	endpointResult
O=C(Nc1cnc(NCc2c(F)ccc3c2CCO3)n2cnnc12)c1ccccc1	3
CN(c1cn(C)cn1)c1cnc(NCc2c(F)ccc3c2CCO3)n2cnnc12	1.6
COc1ccccc1C(=O)Nc1cnc(NCc2c(F)ccc3c2CCO3)n2cnnc12	3.1
O=C1Oc2ccccc2CN1c1cnc(NCc2c(F)ccc3c2CCO3)n2cnnc12	2.7
CN(C(=O)c1ccccc1)c1cnc(NCc2c(F)ccc3c2CCO3)n2cnnc12	2.4
Cn1nccc1-c1cnc(NCc2c(F)ccc3c2CCO3)c2cn[nH]c(=O)c12	2.6
CC1(C)CC(=O)N(c2cnc(NCc3c(F)ccc4c3CCO4)n3cnnc23)C1	2
O=C1c2cnccc2CN1c1cnc(NCc2c(F)ccc3c2CCO3)n2cnnc12	1.6
O=C1CC2(CC2)CN1c1cnc(NCc2c(F)ccc3c2CCO3)n2cnnc12	1.9
Cc1nccn1-c1cnc(NCc2c(F)ccc3c2CCO3)c2cn[nH]c(=O)c12	2.1

I: CN(c1ccncc1)c1cnc(NCc2c(F)ccc3c2CCO3)n2cnnc12
II: CNC(=O)c1ncc(-c2cnc(NCc3c(F)ccc4c3CCO4)c3cn[nH]c(=O)c23)n1C
Input line: Sort I and II by logD at 0.5 h descending and give the first. Give the label of your selection.
Output line: II

1: CN(C)C(=O)c1cc(-c2cnc(NCc3c(F)ccc4c3CCO4)c3cn[nH]c(=O)c23)n(C)n1
2: Cc1ncccc1-c1cnc(NCc2c(F)ccc3c2CCO3)c2cn[nH]c(=O)c12
Input line: Determine, for 1 and 2 , which has the greater value of logD at 0.5 h. API: response body contains the label of the selected item.
Output line: 2

A: Cc1nc(CO)ccc1-c1cnc(NCc2c(F)ccc3c2CCO3)c2cn[nH]c(=O)c12
B: O=C1c2ccc(OCCN3CCCC3)cc2CN1c1cnc(NCc2c(F)ccc3c2CCO3)n2cnnc12
Input line: Given the two records A and B , choose the one whose logD at 0.5 h value is lower. Your answer should be the label of the entry you select.
Output line: B
(B: 1.6, A: 2.4)

* * *

test: Intrinsic clearance in human hepatocytes assessed per million cells at 1 uM measured upto 30 mins by HPLC analysis; assay type: ADME, cell-based, Hepatocyte; details: read-out: CLH
measure: hepatocyte CLint at 1 µM (µL/min/1e6 cells)

1: Cc1ncccc1-c1cnc(NCc2c(F)ccc3c2CCO3)c2cn[nH]c(=O)c12
2: CNC(=O)c1ccc(-c2cnc(NCc3c(F)ccc4c3CCO4)c3cn[nH]c(=O)c23)c(C)n1
Input line: Field: entry with larger hepatocyte CLint at 1 µM (options 1 / 2 ). Indicate your choice by writing its label.
Output line: 1

* * *

assay: Volume of distribution at steady state in rat at 1 mg/kg, po or 0.5 mg/kg, iv; format: ADME, organism-based; details: in vivo, read-out: Vdss
measure: Vd (L/kg)

Examples with their reported Vd follow.
moleculeSmiles	unitAnnotation	Vd
O=C1CC2(CC2)CN1c1cnc(NCc2c(F)ccc3c2CCO3)n2cnnc12	L/kg	1.4
Cc1nc(C(=O)N(C)C)ccc1-c1cnc(NCc2c(F)ccc3c2CCO3)c2cn[nH]c(=O)c12	L/kg	1.9
CN(c1ncco1)c1cnc(NCc2c(F)ccc3c2CCO3)n2cnnc12	L/kg	3.1

A: O=C1c2ccc(OCCN3CCCC3)cc2CN1c1cnc(NCc2c(F)ccc3c2CCO3)n2cnnc12
B: Cc1ncccc1-c1cnc(NCc2c(F)ccc3c2CCO3)n2cnnc12
Input line: Hi there, can you help? I need to know whether A or B has lower measured Vd. Please respond with the label that marks your chosen entry.
Output line: B

* * *

test: Bioavailability in rat at 1 mg/kg, po or 0.5 mg/kg, iv; format: ADME, organism-based; conditions: in vivo
measure: bioavailability (%)

moleculeSmiles	endpointResult
Cc1ncccc1-c1cnc(NCc2c(F)ccc3c2CCO3)n2cnnc12	74
O=C1CC2(CC2)CN1c1cnc(NCc2c(F)ccc3c2CCO3)n2cnnc12	68
CNC(=O)c1ccc(-c2cnc(NCc3c(F)ccc4c3CCO4)c3cn[nH]c(=O)c23)c(C)n1	53
CN(c1ncco1)c1cnc(NCc2c(F)ccc3c2CCO3)n2cnnc12	61

A: CN(c1ccn(C)n1)c1cnc(NCc2c(F)ccc3c2CCO3)n2cnnc12
B: Cc1nc(C(=O)N(C)C)ccc1-c1cnc(NCc2c(F)ccc3c2CCO3)c2cn[nH]c(=O)c12
Input line: Determine, for A and B , which has the greater value of bioavailability. In your reply, give the label of the chosen option.
Output line: A
(A: 67%, B: 22%)

* * *

experiment: Lipophilicity, logD of the compound in Octanol/phosphate buffer at pH 7.4 after 30 mins by shake-flask method; format: physicochemical
measure: logD at 0.5 h

moleculeSmiles	logD at 0.5 h
C[C@H]1CC(=O)N(c2cnc(NCc3c(F)ccc4c3CCO4)n3cnnc23)C1	1.8
COCCC(=O)Nc1cnc(NCc2c(F)ccc3c2CCO3)n2cnnc12	1.4
Cc1ncccc1-c1cnc(NCc2c(F)ccc3c2CCO3)c2nn(CC#N)c(=O)n12	2.2
Cc1ncccc1-c1cnc(NCc2c(F)ccc3c2CCO3)c2ncc(=O)[nH]c12	2.8

I: CN(c1cnn(C)c1)c1cnc(NCc2c(F)ccc3c2CCO3)n2cnnc12
II: O=C1CCCN1c1cnc(NCc2c(F)ccc3c2CCO3)n2cnnc12
Input line: Choose between I and II : whose measured logD at 0.5 h value is numerically larger? Please respond with the label that marks your chosen entry.
Output line: I
(I: 2.2, II: 1.3)
